Origin of values: the supplement of paper PMC6555819

Tested on: PPARg homodimer (NR concentration 180 nM)
assay: PBM binding z-score (relative to random genomic background probes); higher = stronger binding; sequences stand for … in GC…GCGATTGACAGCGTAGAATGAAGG
Where PBM binding z-score equals or exceeds 1, the correct label is TRUE; where it does not, the label is FALSE.

Example results:
GAAACGAGGGCAAGTTGATAGCAGAGTTTGATGG :: FALSE
ATCGAAAGGTCGAGGAGAGTATAGAGAAAGGGAA :: TRUE
CGTCAAAGCTCAAGGTAACGTAACAGAAAGCAGC :: FALSE
ATCGAAAGGTCGTGAGGTGAGTATGCAGAAAGGC :: TRUE
TCCATTAGTTGAAGGGCAACCGACGAGTCCGTTT :: TRUE

Turning now to a further sequence:
API: above_or_equal(metric=PBM binding z-score, cutoff=1) for item "GCTAGTTGGTCAGTAAAAGGGCACACACCGGTCG" TRUE
